- Assay system: human Opioid Receptor Mu (Opiate Mu), OPRM1 (gene 4988) (UniProt P35372)
- Sequence (P35372 whole entry, looked up): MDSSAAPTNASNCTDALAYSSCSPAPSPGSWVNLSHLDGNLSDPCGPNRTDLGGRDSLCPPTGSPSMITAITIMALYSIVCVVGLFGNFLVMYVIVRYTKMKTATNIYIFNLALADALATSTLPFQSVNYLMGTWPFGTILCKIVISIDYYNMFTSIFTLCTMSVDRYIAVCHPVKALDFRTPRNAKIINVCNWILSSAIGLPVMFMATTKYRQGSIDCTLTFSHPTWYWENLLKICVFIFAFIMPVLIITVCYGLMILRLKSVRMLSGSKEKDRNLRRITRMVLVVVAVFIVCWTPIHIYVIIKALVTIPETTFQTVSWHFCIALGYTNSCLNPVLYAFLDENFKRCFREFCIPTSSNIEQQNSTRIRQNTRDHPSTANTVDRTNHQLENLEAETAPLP
- Assay name: NVS_GPCR_hOpiate_mu: NovaScreen (NVS) G Protein-Coupled Receptor Assay for human Opioid Receptor Mu (Opiate Mu) (AID 2283290);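 further: hits lower bound tracer signal versus DMSO meaning displacement of the ligand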
Records with an inconclusive call do not appear. Activity calls are given as the source filed them. How the source made its calls: active means hit-call score of the fitted dose curve at least 0.9, where 1 is the maximum; inconclusive means response in the unintended direction; inactive means score below 0.9.
# output must be one of active, inactive

Any idea what this test logged for `Cc1cc2c(cc1C(F)(F)F)N(C(=O)Nc1ccc(Oc3cccnc3C)nc1)CC2` ?
inactive

Ok, now `O=c1[nH]sc2ccccc12`
inactive

Ok, now `COc1ccc2cc(S(=O)(=O)N[C@H](CC(=O)N[C@H](Cc3ccc(CN4[C@H](C)CCC[C@@H]4C)cc3)C(=O)N(C)C(C)C)c3ccc4c(c3)OCO4)ccc2c1`
active

Ok, now `Clc1ccccc1C(c1ccccc1)(c1ccccc1)n1ccnc1`
inactive

Ok, now `COc1cc(C(=O)NC2CCN(C)CC2)ccc1Nc1ncc2c(n1)N(C1CCCC1)CC(F)(F)C(=O)N2C`
active

Ok, now `NCc1cccc(C2CCN(C(=O)c3ccc(C#Cc4ccccc4F)o3)CC2)c1`
active

====

- Read-out: Monokine induced gamma interferon (MIG), CXCL9 (gene 4283)
- Assay name: BSK_BE3C_MIG: BioMAP Diversity Plus: BE3C Assay for Monokine induced gamma interferon (MIG) Biomarker Activity (AID 2283035)
- Particulars: primary human bronchial epithelial cells; actives raise or lower the signal
Active and inactive are the calls of the source. How the source made its calls: active means hit-call score of the fitted dose curve at least 0.9, where 1 is the maximum; inactive means score below 0.9.
# output must be one of active, inactive

Any idea what this test logged for `CCCCCCCCCCCC[N+](C)(C)C` ?
active

Ok, now `CCCCCCCCCCCCO`
inactive

Ok, now `CC(C)(O)c1ccc(CNC(=O)c2cccnc2Oc2ccc3nonc3c2)cc1`
inactive

Ok, now `CC(C)(c1cc(Br)c(O)c(Br)c1)c1cc(Br)c(O)c(Br)c1`
active

Ok, now `CCCCCc1ccc(N)cc1`
inactive

Ok, now `c1ccc(C[n+]2cccc3ccccc32)cc1`
inactive

Ok, now `c1ccc2n[nH]nc2c1`
inactive

Ok, now `COc1cccc([C@H](O)C2CCN(CCc3ccc(F)cc3)CC2)c1OC`
inactive

Ok, now `CCN(CC)C(=O)c1cc(S(=O)(=O)Cc2ccccc2)c(N2CCC(c3ccccc3)CC2)cc1N(CC)CCN(C)C`
active

Ok, now `CO[C@H]1/C=C/O[C@@]2(C)Oc3c(C)c(O)c4c(O)c(c(/C=N/N5CCN(C)CC5)c(O)c4c3C2=O)NC(=O)/C(C)=C\C=C\[C@H](C)[C@H](O)[C@@H](C)[C@@H](O)[C@@H](C)[C@H](OC(C)=O)[C@@H]1C`
inactive

Ok, now `C[C@]12CC[C@@H]3c4ccc(O)cc4CC[C@H]3[C@@H]1CCC2=O`
inactive

Ok, now `O=C1c2ccccc2C(=O)N1CCc1noc(-c2ccc(CN3CCCCCC3)s2)n1`
inactive

Ok, now `O=C=NCCCCCCN=C=O`
inactive

Ok, now `CC(C)(C)c1cc(/C=C2\SC(N)=NC2=O)cc(C(C)(C)C)c1O`
inactive

Ok, now `O=C(Nc1ccc(Cl)cc1)Nc1ccc(Cl)c(Cl)c1`
inactive

Ok, now `CN(C)c1ccc(C(=C2C=CC(=[N+](C)C)C=C2)c2ccc(N(C)C)cc2)cc1`
active

Ok, now `CCCCCCCC[Si](OCC)(OCC)OCC`
inactive

Ok, now `CN(C)C(=O)C1(N2CCCCC2)CCN(CC[C@@]2(c3ccc(Cl)c(Cl)c3)CN(C(=O)c3ccccc3)CCO2)CC1`
active

Ok, now `Cc1c2ccccc2c(C)c2c1ccc1ccccc12`
inactive

Ok, now `CCCCCCCCOC(=O)c1cc(O)c(O)c(O)c1`
active

Ok, now `CCCCOC(=O)CC(CC(=O)OCCCC)(OC(C)=O)C(=O)OCCCC`
inactive

Ok, now `CC[C@H](NC(=O)c1cc(F)ccc1NS(=O)(=O)c1cccc2cccnc12)c1ccccc1`
inactive
